Tested on: Macaca fascicularis PRLR (mfPRLR.mmh; SEQ ID NO:403)
Sequence (as listed by the source): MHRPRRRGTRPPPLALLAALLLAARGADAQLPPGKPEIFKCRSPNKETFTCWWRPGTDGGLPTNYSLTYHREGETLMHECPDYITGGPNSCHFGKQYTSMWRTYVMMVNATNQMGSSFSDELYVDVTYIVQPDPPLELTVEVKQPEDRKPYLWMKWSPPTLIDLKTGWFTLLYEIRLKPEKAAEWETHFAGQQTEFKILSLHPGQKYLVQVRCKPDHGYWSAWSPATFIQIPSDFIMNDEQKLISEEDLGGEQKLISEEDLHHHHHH
protocol details: Surface plasmon resonance (Biacore T200), antibody-capture format
Assay type: binding
condition notes: 25° C., analyte mfPRLR.mmh
Method: Antibodies, expressed as human IgG1 Fc (i.e., “H1H” designations), were captured onto an anti-human Fc sensor surface (mAb-capture format), and soluble monomeric (hPRLR.mmh; SEQ ID NO:401, or Macaca fascicularis (mf) PRLR.mmh; SEQ ID NO:403) or dimeric (hPRLR.mFc; SEQ ID NO:402) PRLR protein was injected over the sensor surface. Measurements were conducted on a T200 Biacore instrument. […]
endpoint label: ka (M/s)
Numeric only. Scale: M/s

H1H6976N: anti-PRLR antibody, human IgG1 Fc form of H2M6976N of Table 1; HCVR/LCVR SEQ ID NOs 386/394 (antibody, V domains shown, human IgG1 Fc) VH: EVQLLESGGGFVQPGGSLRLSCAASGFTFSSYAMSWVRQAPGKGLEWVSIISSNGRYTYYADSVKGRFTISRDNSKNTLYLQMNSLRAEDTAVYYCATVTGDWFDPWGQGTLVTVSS VL: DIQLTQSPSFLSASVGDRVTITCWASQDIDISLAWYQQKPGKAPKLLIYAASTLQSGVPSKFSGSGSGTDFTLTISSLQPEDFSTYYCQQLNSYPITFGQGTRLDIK | 466000
H1H6953N: anti-PRLR antibody, human IgG1 Fc form of H1M6953N of Table 1; HCVR/LCVR SEQ ID NOs 274/282 (antibody, V domains shown) VH: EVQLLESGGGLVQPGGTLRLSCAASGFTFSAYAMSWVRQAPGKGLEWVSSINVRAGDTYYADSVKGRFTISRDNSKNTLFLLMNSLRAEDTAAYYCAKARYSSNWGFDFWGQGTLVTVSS VL: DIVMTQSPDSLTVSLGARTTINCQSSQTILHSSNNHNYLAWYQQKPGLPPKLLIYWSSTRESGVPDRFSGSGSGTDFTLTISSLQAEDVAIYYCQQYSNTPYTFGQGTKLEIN | 727000
H1H6795P: fully human anti-PRLR antibody, human IgG1 Fc; HCVR/LCVR SEQ ID NOs 162/170 (antibody, V domains shown) VH: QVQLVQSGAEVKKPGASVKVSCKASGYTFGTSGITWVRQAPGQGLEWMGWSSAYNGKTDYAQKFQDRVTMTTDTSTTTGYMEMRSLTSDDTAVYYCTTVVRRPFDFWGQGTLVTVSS VL: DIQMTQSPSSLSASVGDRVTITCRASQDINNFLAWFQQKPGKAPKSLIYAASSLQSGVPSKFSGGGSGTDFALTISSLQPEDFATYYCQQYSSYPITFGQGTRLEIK | 844000

**Query** What ka value was documented for this molecule, H1H6967N: anti-PRLR antibody, human IgG1 Fc form of H2M6967N of Table 1; HCVR/LCVR SEQ ID NOs 354/362 (antibody, V domains shown, human IgG1 Fc) VH: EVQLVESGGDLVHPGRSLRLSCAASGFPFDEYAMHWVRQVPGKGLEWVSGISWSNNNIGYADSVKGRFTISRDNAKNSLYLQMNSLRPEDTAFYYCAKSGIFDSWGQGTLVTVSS VL: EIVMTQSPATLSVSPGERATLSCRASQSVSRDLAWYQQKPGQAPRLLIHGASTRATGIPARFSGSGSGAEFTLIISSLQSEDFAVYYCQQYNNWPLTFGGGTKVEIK ?
**Result** 190000
